# Test system: soybean
# Test: Test B pre/postemergence soybean
# Assay type: in vivo, Glycine max
# Stated Conditions: Preemergence, Rate 500 g/ha; scale of 0 to 10 where 0 is no effect and 10 is complete control
Attribute Measured: Soybean plant response rating

Query: Name the recorded Soybean plant response rating of CCCCCCn1c(=O)on(C(=O)N(c2ccccc2)C(C)C)c1=O [Compound 558] , assay system soybean.
Result: 0

Query: Name the recorded Soybean plant response rating of CCOC(=O)C(C)N(C(=O)n1oc(=O)n(C(C)C)c1=O)c1ccc(F)cc1 (stereo not shown) [Compound 302] , assay system soybean.
Result: 0

Query: Name the recorded Soybean plant response rating of CCCCn1c(=O)on(C(=O)N(c2ccccc2)C(C)C)c1=O [Compound 556] , assay system soybean.
Result: 0

Query: Name the recorded Soybean plant response rating of CC(C)N(C(=O)n1oc(=O)n(C2CC2)c1=O)c1ccc(F)cc1F [Compound 299] , assay system soybean.
Result: 7

Query: Name the recorded Soybean plant response rating of COCCOCn1c(=O)on(C(=O)N(c2ccc(F)cc2F)C(C)C)c1=O [Compound 505] , assay system soybean.
Result: 5

Query: Name the recorded Soybean plant response rating of CC(C)N(C(=O)n1oc(=O)n(COCc2ccccc2)c1=O)c1ccccc1 [Compound 579] , assay system soybean.
Result: 0

Query: Name the recorded Soybean plant response rating of CC(C)N(C(=O)n1oc(=O)n(CCC(F)(F)F)c1=O)c1ccc(Cl)cc1 [Compound 554] , assay system soybean.
Result: 3

---

# Test system: morningglory
# Test: Test B pre/postemergence morningglory
# Format: in vivo, Ipomoea hederacea
# Stated Conditions: Rate 500 g/ha, Postemergence; scale 0 to 10
Below: a set of entries, each annotated with reported Morningglory plant response rating.

Recorded Morningglory plant response rating, per entry:
- Cc1nc(C)c(-n2c(=O)on(C(=O)N(c3ccccc3)C(C)C)c2=O)s1: 0
- CC(C)N(C(=O)n1oc(=O)n(C(C)c2ccccc2)c1=O)c1ccc(Cl)cc1 (stereo not shown): 8
- CN(C(=O)n1oc(=O)n(Cc2ccccc2)c1=O)c1ccccc1: 0
- CC(C)N(C(=O)n1oc(=O)n([C@@H](C)c2ccccc2)c1=O)c1ccccc1: 10
- CCN(C(=O)n1oc(=O)n(N(C)c2ccccc2)c1=O)C1CCCCC1: 2
- CCN(Cc1ccncc1)C(=O)n1oc(=O)n(C(C)C)c1=O: 0

Consider now this further compound.
Query: Please report Morningglory plant response rating for the following compound: COc1ccccc1Cn1c(=O)on(C(=O)N(c2ccc(F)cc2)C(C)C)c1=O
Result: 8

---

Below: a set of entries, each annotated with reported Plant response rating, Corn.
# Tested on: corn
# Test: Test B pre/postemergence corn
# Type: in vivo, Zea mays
# Stated Conditions: Postemergence, Rate 500 g/ha; scale 0 to 10, 0 is no effect, 10 is complete control

Recorded Plant response rating, Corn, per entry:
• CC(C)N(C(=O)n1oc(=O)n(CC2=CCCCC2)c1=O)c1ccccc1 = 0
• CC(C)C(=O)Cn1c(=O)on(C(=O)N(c2ccc(F)cc2F)C(C)C)c1=O = 3
• CC(C)=CCn1c(=O)on(C(=O)N(c2ccc(F)cc2F)C(C)C)c1=O = 0

Query: Please report Plant response rating, Corn for the following molecule: Cc1noc(C)c1Cn1c(=O)on(C(=O)N(c2ccc(F)cc2F)C(C)C)c1=O
Result: 0

Query: Please report Plant response rating, Corn for the following molecule: COCCOCn1c(=O)on(C(=O)N(c2ccc(F)cc2F)C(C)C)c1=O
Result: 6

---

# System: pigweed
# Test: Test B pre/postemergence pigweed
# Assay type: in vivo, Amaranthus retroflexus
# Stated Conditions: Preemergence, Rate 125 g/ha; scale 0 to 10 (0 no effect, 10 complete control)
Below: a set of entries, each annotated with reported Plant response rating, Redroot pigweed.
Simply state the number, no unit and no words.

Recorded Plant response rating, Redroot pigweed, per entry:
• CC(C)N(C(=O)n1oc(=O)n(C(C)C)c1=O)c1ccc(F)cc1F [Compound 109] = 10
• CC(C)N(C(=O)n1oc(=O)n(-c2cc(Cl)ccc2Cl)c1=O)c1ccc(F)cc1 [Compound 16] = 0
• CCc1ccccc1-n1c(=O)on(C(=O)N(c2ccc(F)cc2)C(C)C)c1=O [Compound 34] = 2

Consider now this further compound.
Query: Please report Plant response rating, Redroot pigweed for the following compound: Cc1ccccc1-n1c(=O)on(C(=O)N(c2cc(OC(C)C)c(Cl)cc2Cl)C(C)C)c1=O [Compound 42]
Result: 0

---

Below: a set of entries, each annotated with reported Rape plant response rating.
# Tested on: rape
# Test: Test B pre/postemergence rape
# Assay type: in vivo, Brassica napus
# Stated Conditions: Rate 500 g/ha, Postemergence; scale 0 to 10
Simply state the number, no unit and no words.

Recorded Rape plant response rating, per entry:
- CC(C)N(C(=O)n1oc(=O)n([C@@H](C)c2ccccc2)c1=O)c1ccccc1: 0
- COc1ccccc1Cn1c(=O)on(C(=O)N(c2ccc(F)cc2)C(C)C)c1=O: 3
- CC(C)N(C(=O)n1oc(=O)n(C(C)c2ccccc2)c1=O)c1ccc(Cl)cc1 (stereo not shown): 0

Consider now this further compound.
Query: Please report Rape plant response rating for the following compound: CCN(C(=O)n1oc(=O)n(C(C)C)c1=O)c1nncs1
Result: 0

---

# System: crabgrass
# Test: Test B pre/postemergence crabgrass
# Format: in vivo, Digitaria sanguinalis
# Stated Conditions: Preemergence, Rate 250 g/ha; scale 0 to 10 (0 no effect, 10 complete control)
Attribute Measured: Plant response rating, Crabgrass

Recorded Plant response rating, Crabgrass, per entry:
- CCOC(Cn1c(=O)on(C(=O)N(c2ccc(Cl)cc2)C(C)C)c1=O)OCC: 9
- CC(C)N(C(=O)n1oc(=O)n(CC(=O)C2CCC2)c1=O)c1ccc(F)cc1: 9
- CCOC(Cn1c(=O)on(C(=O)N(c2ccc(F)cc2)C(C)C)c1=O)OCC: 9

Consider now this further molecule.
Query: Please report Plant response rating, Crabgrass for the following molecule: C=C(Cn1c(=O)on(C(=O)N(c2ccccc2)C(C)C)c1=O)C(C)C
Result: 5

---

# Tested on: rice
# Test: Test B flood test rice
# Format: in vivo, Oryza sativa
# Stated Conditions: Rate 125 g/ha; under heading Pre-emergence; flood test species; visual evaluation after twelve to sixteen days
Attribute Measured: Rice plant response rating (0 to 10 scale, 0 is no effect, 10 is complete control)
Simply state the number, no unit and no words.

Recorded Rice plant response rating (0 to 10 scale, 0 is no effect, 10 is complete control), per entry:
• CCOC(Cn1c(=O)on(C(=O)N(c2ccc(F)cc2F)C(C)C)c1=O)OCC [Compound 630] = 0
• Cc1nc(Cl)sc1C(C)n1c(=O)on(C(=O)N(c2ccc(F)cc2)C(C)C)c1=O (stereo not drawn) [Compound 401] = 0
• CC(C)C(=O)Cn1c(=O)on(C(=O)N(c2ccc(F)cc2F)C(C)C)c1=O [Compound 486] = 0
• CCC=CCn1c(=O)on(C(=O)N(c2ccccc2)C(C)C)c1=O [Compound 454] = 0
• C=CCn1c(=O)on(C(=O)N(c2c(C)cccc2C)C(C)COC)c1=O (stereo not drawn) [Compound 600] = 0
• CC(C)N(C(=O)n1oc(=O)n(C(C)C2CC2)c1=O)c1ccccc1 (stereo not drawn) [Compound 699] = 0
• CCOC(Cn1c(=O)on(C(=O)N(c2ccc(F)cc2)C(C)C)c1=O)OCC [Compound 629] = 0
• CCOC(=O)CC(C(=O)OCC)n1c(=O)on(C(=O)N(c2ccc(Cl)cc2)C(C)C)c1=O (stereo not drawn) [Compound 681] = 0

Consider now this further molecule.
Query: Please report Rice plant response rating (0 to 10 scale, 0 is no effect, 10 is complete control) for the following molecule: CC(C)N(C(=O)n1oc(=O)n(C(C)C2CCC2)c1=O)c1ccc(F)cc1F (stereo not drawn) [Compound 702]
Result: 0

---

# System: pigweed
# Test: Test B pre/postemergence pigweed
# Type: in vivo, Amaranthus retroflexus
# Stated Conditions: Rate 500 g/ha, Preemergence; scale 0 to 10 (0 no effect, 10 complete control)
Attribute Measured: Redroot pigweed plant response rating

Recorded Redroot pigweed plant response rating, per entry:
- CC(C)N(C(=O)n1oc(=O)n(CC2=NOCCO2)c1=O)c1ccc(F)cc1F: 10
- C#CCCn1c(=O)on(C(=O)N(c2ccc(F)cc2)C(C)C)c1=O: 10
- CC(C)N(C(=O)n1oc(=O)n(C(C)C2=NOCC2)c1=O)c1ccc(Cl)cc1 (racemic): 4

Query: Please report Redroot pigweed plant response rating for the following compound: CC(C)N(C(=O)n1oc(=O)n(CC(F)F)c1=O)c1ccc(Cl)cc1
Result: 10

Query: Please report Redroot pigweed plant response rating for the following compound: CC(C)N(C(=O)n1oc(=O)n(CC2=NOCCO2)c1=O)c1ccc(F)cc1
Result: 10
